The origin of these recorded values is patent US20260152503A1.

Catalogue of compounds with associated GI50
- Target Entity: Ba/F3 FGFR2-N549K (Homo sapiens, UniProt P21802, N549K, cells depend on it)
- Construct: fused on or other part: Q9H694 (Protein bicaudal C homolog 1)
- Sequence (P21802 whole entry N549K, the tested form may be a part): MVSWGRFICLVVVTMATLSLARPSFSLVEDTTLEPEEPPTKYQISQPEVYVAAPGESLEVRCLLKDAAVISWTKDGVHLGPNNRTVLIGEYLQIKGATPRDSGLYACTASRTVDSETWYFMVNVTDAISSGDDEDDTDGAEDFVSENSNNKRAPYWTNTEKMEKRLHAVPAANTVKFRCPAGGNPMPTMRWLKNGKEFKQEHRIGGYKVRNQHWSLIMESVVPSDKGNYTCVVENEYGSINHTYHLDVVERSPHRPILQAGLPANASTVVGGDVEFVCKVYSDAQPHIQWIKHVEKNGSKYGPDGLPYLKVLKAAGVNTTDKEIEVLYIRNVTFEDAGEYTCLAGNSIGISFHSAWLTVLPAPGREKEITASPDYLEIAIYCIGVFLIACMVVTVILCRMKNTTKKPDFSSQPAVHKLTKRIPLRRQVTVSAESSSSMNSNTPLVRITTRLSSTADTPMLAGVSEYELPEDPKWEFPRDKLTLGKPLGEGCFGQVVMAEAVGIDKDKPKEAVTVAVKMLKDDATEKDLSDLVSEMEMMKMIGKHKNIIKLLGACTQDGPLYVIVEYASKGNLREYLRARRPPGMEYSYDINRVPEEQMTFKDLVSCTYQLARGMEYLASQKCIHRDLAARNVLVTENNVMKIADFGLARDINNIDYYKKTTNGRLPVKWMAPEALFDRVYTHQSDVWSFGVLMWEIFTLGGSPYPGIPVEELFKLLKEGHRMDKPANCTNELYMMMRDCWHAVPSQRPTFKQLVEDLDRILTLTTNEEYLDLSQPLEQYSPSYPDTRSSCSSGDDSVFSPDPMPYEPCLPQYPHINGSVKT
- Protocol Notes: 2D cell proliferation assay, Ba/F3 FGFR2-N549K
- Assay type: cell-based, mouse
- Conditions Used: 96 hours, CTG, read-out: Cell Line, IC50 Ba/F3 FGFR2-N549K
- Procedure: Low IC50 values are indicative of the high potency of the FGFR inhibitor compounds in this assay selling. […] Cells growing in the log phase are detached with Gibco™ TrypLE™ Express Enzyme and plated in 96 well plate at 3000 to 5000 cells/well in 100 μl of media. […] The luminescence signals are determined with a Biotek™ plate reader. Data is fitted using a sigmoidal curve analysis program (GraphPad Prism®) with variable hill slope and IC50 is determined.
Assay Readout: GI50

1. C=CC(=O)N1CCC2(CC=C(c3c(-c4ncc(C(F)F)cn4)c4c(N)ncnc4n3C)CC2)CC1
1 to 10 nM
2. C=CC(=O)N1CCC2(CC=C(c3c(-c4ncc(OC5CCOC5)cn4)c4c(N)ncnc4n3C)CC2)CC1 (stereo not drawn)
> 100 nM
3. C=CC(=O)N1CCC2(CC=C(c3c(-c4ncc(C5CCOC5)cn4)c4c(N)ncnc4n3C)CC2)CC1 (stereo not drawn)
1 to 10 nM
